The measured values listed here are drawn from PubChem BioAssay AID1259407.

- Test system: CCRIS mutagenicity, Ames/micronucleus/aberration tests
- experiment: CCRIS mutagenicity studies
- condition description: Test System: AMES SALMONELLA TYPHIMURIUM; Strain/Indicator: TA100; Metabolic Activation: RAT LIVER S-9, AROCLOR 1254; Method: STANDARD PLATE
- From the text: The CCRIS database contains chemical records with carcinogenicity, mutagenicity, tumor promotion, and tumor inhibition test results. It was developed by the National Cancer Institute (NCI). Data are derived from studies cited in primary journals, current awareness tools, NCI reports, and other sources. Test results have been reviewed by experts in carcinogenesis and mutagenesis. CCRIS provides historical information from the years 1985 - 2011. It is no longer updated. […]
Activity calls are given as the source filed them. The rule behind the calls is not given here.
Classes used: T (active), F (inactive)

{"molecule": "C=CCN=C=S", "tested on": "CCRIS mutagenicity, Ames/micronucleus/aberration tests", "label value": "T"}
{"molecule": "CC[n+]1c(-c2ccccc2)c2cc(N)ccc2c2ccc(N)cc21", "tested on": "CCRIS mutagenicity, Ames/micronucleus/aberration tests", "label value": "F"}
{"molecule": "Cc1cc(O)cc2oc(=O)c3c(O)cc(O)cc3c12", "tested on": "CCRIS mutagenicity, Ames/micronucleus/aberration tests", "label value": "F"}
{"molecule": "CC(C)=CCCC(C)CC=O (centres undefined)", "tested on": "CCRIS mutagenicity, Ames/micronucleus/aberration tests", "label value": "F"}
{"molecule": "C[Si]1(C)O[Si](C)(C)O[Si](C)(C)O1", "tested on": "CCRIS mutagenicity, Ames/micronucleus/aberration tests", "label value": "F"}
{"molecule": "Cn1c2ccccc2c2ccc([N+](=O)[O-])cc21", "tested on": "CCRIS mutagenicity, Ames/micronucleus/aberration tests", "label value": "T"}
{"molecule": "Nc1ccc2[nH]c3ccccc3c2c1", "tested on": "CCRIS mutagenicity, Ames/micronucleus/aberration tests", "label value": "F"}
{"molecule": "COc1c(C(C)(C)C)cc([N+](=O)[O-])c(C)c1[N+](=O)[O-]", "tested on": "CCRIS mutagenicity, Ames/micronucleus/aberration tests", "label value": "T"}
{"molecule": "CCO[Si](C)(OCC)OCC", "tested on": "CCRIS mutagenicity, Ames/micronucleus/aberration tests", "label value": "F"}
{"molecule": "COC(=O)c1ccc(C(=O)OC)cc1", "tested on": "CCRIS mutagenicity, Ames/micronucleus/aberration tests", "label value": "F"}
{"molecule": "O=C1OC(O)C(C(Br)Br)=C1Br (centres undefined)", "tested on": "CCRIS mutagenicity, Ames/micronucleus/aberration tests", "label value": "F"}
{"molecule": "C[Si](C)(Cl)Cl", "tested on": "CCRIS mutagenicity, Ames/micronucleus/aberration tests", "label value": "F"}
{"molecule": "CC1CCCO1 (centres undefined)", "tested on": "CCRIS mutagenicity, Ames/micronucleus/aberration tests", "label value": "F"}
{"molecule": "CC1=CC(=O)c2c(O)cccc2C1=O", "tested on": "CCRIS mutagenicity, Ames/micronucleus/aberration tests", "label value": "F"}
